System: P. aeruginosa strain PAO1
reported conditions: PAO1, 18 h
# PAO1 MIC per record follows

These recorded examples may help you get a feel for the data.
INSERT INTO measurements (molecule, endpoint_value) VALUES
  ('CC(=O)OCC1=C(C(=O)O)N2C(=O)[C@@H](NC(=O)CCCNc3nc4cc(n3)CCSC[C@H](N)C(=O)N[C@@H](Cc3ccccc3)C(=O)N[C@@H](C)C(=O)N[C@@H](CCCCN)C(=O)N[C@@H](Cc3c[nH]c5ccccc35)C(=O)N[C@@H](C)C(=O)N[C@@H](Cc3ccccc3)C(=O)N[C@H](C(=O)N[C@@H](Cc3c[nH]c5ccccc35)C(=O)N[C@@H](CC(C)C)C(=O)N[C@@H](CCCCN)C(=O)N[C@@H](CCCCN)C(N)=O)CSCC4)[C@H]2SC1', '> 32 µM'),
  ('CC(=O)OCC1=C(C(=O)O)N2C(=O)[C@@H](NC(=O)CCCNc3nc4cc(n3)CCSC[C@H](N)C(=O)N[C@@H](C)C(=O)N[C@@H](CCCCN)C(=O)N[C@@H](Cc3c[nH]c5ccccc35)C(=O)N[C@@H](C)C(=O)N[C@@H](Cc3ccccc3)C(=O)N[C@@H](CCCCN)C(=O)N[C@H](C(=O)N[C@@H](CC(C)C)C(=O)N[C@@H](CCCCN)C(=O)N[C@@H](CCCCN)C(N)=O)CSCC4)[C@H]2SC1', '> 35 µM');

For the next question, use this molecule.
Would you mind telling me what PAO1 MIC value was observed for C[C@@H]1NC(=O)[C@H](Cc2c[nH]c3ccccc23)NC(=O)[C@H](CCCCN)NC(=O)[C@@H](NC(=O)[C@@H](N)Cc2ccccc2)CSCCc2cc(nc(NCCCC(=O)NCCCCCC(=O)N[C@@H]3C(=O)N4C(C(=O)O)=C(COC(=O)N5CCN(c6cc7c(cc6F)c(=O)c(C(=O)O)cn7C6CC6)CC5)CS[C@H]34)n2)CCSC[C@@H](C(=O)N[C@@H](CCCCN)C(=O)N[C@@H](CCCCN)C(N)=O)NC(=O)[C@H](Cc2c[nH]c3ccccc23)NC(=O)[C@H](CCCCN)NC(=O)[C@H](Cc2ccccc2)NC1=O [P2-20] ?
13 µM

----------
Test system: P. aeruginosa strain PAO1
reported conditions: PAO1, 18 h
Each entry below carries its recorded PAO1 MIC.

Sample records with PAO1 MIC:
INSERT INTO assay_data (molecule, target, endpoint_value) VALUES
  ('C[C@@H]1NC(=O)[C@H](Cc2c[nH]c3ccccc23)NC(=O)[C@H](CCCCN)NC(=O)[C@@H](NC(=O)[C@@H](N)Cc2ccccc2)CSCCc2cc(nc(NCCCC(=O)N[C@@H](C(=O)N[C@@H]3C(=O)N4C(C(=O)O)=C(COC(=O)N5CCN(c6cc7c(cc6F)c(=O)c(C(=O)O)cn7C6CC6)CC5)CS[C@H]34)c3ccccc3)n2)CCSC[C@@H](C(=O)N[C@@H](CCCCN)C(=O)N[C@@H](CCCCN)C(N)=O)NC(=O)[C@H](Cc2c[nH]c3ccccc23)NC(=O)[C@H](CCCCN)NC(=O)[C@H](Cc2ccccc2)NC1=O [P2-21]', 'P. aeruginosa strain PAO1', '27 µM'),
  ('CC(=O)OCC1=C(C(=O)O)N2C(=O)[C@@H](NC(=O)CCCNc3nc4cc(n3)CCSC[C@H](NC(=O)[C@H](CCCCN)NC(=O)[C@H](C)NC(=O)[C@@H](N)Cc3ccccc3)C(=O)N[C@@H](C)C(=O)N[C@@H](Cc3ccccc3)C(=O)N[C@@H](CCCCN)C(=O)N[C@@H](Cc3c[nH]c5ccccc35)C(=O)N[C@@H](CC(C)C)C(=O)N[C@@H](CCCCN)C(=O)N[C@H](C(N)=O)CSCC4)[C@H]2SC1', 'P. aeruginosa strain PAO1', '> 35 µM'),
  ('CC(=O)OCC1=C(C(=O)O)N2C(=O)[C@@H](NC(=O)CCCNc3nc4cc(n3)CCSC[C@H](NC(=O)[C@H](Cc3c[nH]c5ccccc35)NC(=O)[C@H](CCCCN)NC(=O)[C@H](C)NC(=O)[C@@H](N)Cc3ccccc3)C(=O)N[C@@H](Cc3ccccc3)C(=O)N[C@@H](CCCCN)C(=O)N[C@@H](Cc3c[nH]c5ccccc35)C(=O)N[C@@H](CC(C)C)C(=O)N[C@@H](CCCCN)C(=O)N[C@@H](CCCCN)C(=O)N[C@H](C(N)=O)CSCC4)[C@H]2SC1', 'P. aeruginosa strain PAO1', '> 31 µM');

Pending molecule:
What does the record list as PAO1 MIC for CC(=O)OCC1=C(C(=O)O)N2C(=O)[C@@H](NC(=O)CCCNc3nc4cc(n3)CCSC[C@H](NC(=O)[C@H](CCCCN)NC(=O)[C@H](C)NC(=O)[C@H](Cc3ccccc3)NC(=O)[C@@H](N)CCCCN)C(=O)N[C@@H](C)C(=O)N[C@@H](Cc3ccccc3)C(=O)N[C@@H](CCCCN)C(=O)N[C@@H](Cc3c[nH]c5ccccc35)C(=O)N[C@@H](CC(C)C)C(=O)N[C@@H](CCCCN)C(=O)N[C@H](C(N)=O)CSCC4)[C@H]2SC1 ?
> 33 µM
